- System: 3-beta-hydroxysteroid-Delta(8),Delta(7)-isomerase (Homo sapiens)
- Sequence (Q15125 whole entry): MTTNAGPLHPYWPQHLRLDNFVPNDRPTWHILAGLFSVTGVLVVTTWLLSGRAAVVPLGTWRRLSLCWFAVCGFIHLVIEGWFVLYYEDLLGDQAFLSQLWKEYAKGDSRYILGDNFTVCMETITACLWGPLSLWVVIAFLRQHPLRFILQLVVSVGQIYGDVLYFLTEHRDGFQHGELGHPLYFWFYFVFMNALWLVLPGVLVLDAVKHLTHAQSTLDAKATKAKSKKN
- Test Description: Affinity for human EMP expressed in ERG2 deficient strain of Saccharomyces cerevisiae using [3H]ifenprodil or (+)-[3H]pentazocine as radioligand
Each record here notes measured pKi.
Kindly note that pKi refers to -log10 of the concentration in mol/L and answer with the value alone.

Molecule	pKi
O=C(O)c1ccc(CCN2CCN(C/C=C/c3ccc(Cl)cc3)CC2)cc1	4.47

What the record says about CC(C)CCCC(C)CCCC(C)N1CC[C@H]2[C@H](C)[C@@H](O)CC[C@]2(C)C1 (stereo partly drawn) : pKi is 9.22

What the record says about C=CCN1CC[C@@]2(C)c3cc(O)ccc3CC1[C@H]2C : pKi is 5.03

What the record says about CCN(CC)CCOc1ccc(/C(=C(\Cl)c2ccccc2)c2ccccc2)cc1 [ZUCLOMIPHENE] : pKi is 8.70

What the record says about C[C@H]1CCC2[C@@H](C)[C@H]3[C@H](C[C@H]4C5CC=C6C[C@@H](O)CC[C@]6(C)[C@H]5CC[C@]34C)N2C1 (single isomer, unassigned) : pKi is 6.36

What the record says about Cc1ccccc1NC(=N)Nc1ccccc1C [DITOLYLGUANIDINE] : pKi is 5.17

What the record says about CC1CC[C@]2(NC1)O[C@H]1C[C@H]3[C@@H]4CC[C@H]5C[C@@H](O)CC[C@]5(C)[C@H]4CC[C@]3(C)[C@H]1[C@@H]2C (stereo partly drawn) : pKi is 6.23

What the record says about CCN(CC)CCO[C@H]1CC[C@@]2(C)C(=CC[C@@H]3[C@@H]2CC[C@]2(C)C(=O)CC[C@@H]32)C1 : pKi is 8.70

----------
- System: UniProtKB P32352
- Sequence (P32352 whole entry): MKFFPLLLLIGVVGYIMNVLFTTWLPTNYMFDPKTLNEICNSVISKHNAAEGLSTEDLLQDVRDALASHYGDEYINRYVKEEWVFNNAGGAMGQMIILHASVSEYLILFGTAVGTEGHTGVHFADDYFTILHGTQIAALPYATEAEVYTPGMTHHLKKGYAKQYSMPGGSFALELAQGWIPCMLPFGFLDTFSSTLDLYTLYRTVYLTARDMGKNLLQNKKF
- Test Description: Affinity for ERG2 of Saccharomyces cerevisiae using [3H]ifenprodil or (+)-[3H]pentazocine radioligand
- Measurement Setup: read-out: Ki
Endpoint: Ki (µM)
Numbers only here, please. The scale is µM.

# count of solved cases: 8
Compound	Ki (µM)
O=C(O)c1ccc(CCN2CCN(C/C=C/c3ccc(Cl)cc3)CC2)cc1	16.5
C=CCN1CC[C@@]2(C)c3cc(O)ccc3CC1[C@H]2C	4.7
N=C(NCc1ccccc1)Nc1nc(-c2cc3ccccc3[nH]2)cs1	31.7
CC1=C2C[C@H]3[C@@H](CC=C4C[C@@H](O)CC[C@@]43C)[C@@H]2CC[C@]12O[C@]1(C)C[C@H](C)CN[C@H]1[C@H]2C	0.5
Cc1ccccc1NC(=N)Nc1ccccc1C	2
COc1cc(OC)c(C(=O)CCCN2CCCC2)c(OC)c1	7.15
CCCN1CCC[C@H](c2cccc(O)c2)C1	1.2
CN(C/C=C/c1ccccc1)Cc1cccc2ccccc12	0.31

What the record says about C[C@H]([C@@H](O)c1ccc(O)cc1)N1CCC(Cc2ccccc2)CC1 [(S,R)-IFENPRODIL] : Ki is 0.001

What the record says about CC1CC[C@]2(NC1)O[C@H]1C[C@H]3[C@@H]4CC[C@H]5C[C@@H](O)CC[C@]5(C)[C@H]4CC[C@]3(C)[C@H]1[C@@H]2C (stereo partly specified) : Ki is 0.387

What the record says about CC1CC[C@@]2(NC1)O[C@H]1C[C@H]3[C@@H]4CC=C5C[C@@H](O)CC[C@]5(C)[C@H]4CC[C@]3(C)[C@H]1[C@@H]2C (stereo partly specified) : Ki is 1.17

The reported numbers originate from ChEMBL document CHEMBL1140325.
